Test system: MOLT-4
assay_summary: Antiproliferative activity against human MOLT-4 cells assessed as […] cell proliferation at 10 uM incubated for 48 hrs by WST-1 assay relative to control
Format: functional
Can you tell me Activity for the items I'm about to list?
Answer in %, number only, no unit symbol.

Field request: Activity | item: `CC(C)S(=O)(=O)c1ccc(-c2cc(C(=O)Nc3ccc(N(C)C)cc3)n[nH]2)cc1`
93

Recorded Activity for `CC(C)S(=O)(=O)c1ccc(-c2cnc3[nH]nc(C(=O)NCc4ccccc4)c3c2)cc1` , please?
90

# query: Activity of entry `CS(=O)(=O)c1ccc(-c2cnc3[nH]c(C(=O)NCc4ccccc4)cc3c2)cc1`
100

For the compound shown here, `CS(=O)(=O)c1ccc(-c2cnc3[nH]nc(C(=O)N4CCC(c5ccccc5)CC4)c3c2)cc1` , give the reported Activity.
92

Quick check: Activity of `CC(C)S(=O)(=O)c1ccc(-c2cnc3[nH]c(C(=O)Nc4ccc(N(C)C)cc4)cc3c2)cc1` ?
108

---

Test system: MCF7
assay_summary: Antiproliferative activity against human MCF7 cells assessed as […] cell proliferation at 10 uM incubated for 48 hrs in presence of 10 uM of CDDP by WST-1 assay relative to control
Assay type: functional
value_kind: Activity (%)
Reply numerically in %, unit not repeated.

GET /values?readout=Activity&system=MCF7&item= `CCN1CCN(C(=O)c2c[nH]c3ncc(-c4ccc(S(=O)(=O)C(C)C)cc4)cc23)CC1`
66

What Activity appears in the records for this compound with MCF7? `CC(C)S(=O)(=O)c1ccc(-c2cnc3[nH]c(C(=O)N4CCC(c5ccccc5)CC4)cc3c2)cc1`
64

Field: Activity (MCF7). Entry: `CS(=O)(=O)c1ccc(-c2cnc3[nH]cc(C(=O)NCc4ccccc4)c3c2)cc1`
64

Param readout = Activity; param system = MCF7; param query = `CCN1CCN(Cc2c[nH]c3ncc(-c4ccc(S(=O)(=O)C(C)C)cc4)cc23)CC1` ; response: value
65

Checklist item: Activity tested on MCF7, entry `CS(=O)(=O)c1ccc(-c2cnc3[nH]c(C(=O)N4CCC(c5ccccc5)CC4)cc3c2)cc1` , value?
66

Report Activity for `CC(C)S(=O)(=O)c1ccc(-c2cnc3[nH]c(C(=O)N4CCc5ccccc5C4)cc3c2)cc1` tested on MCF7.
57

Given the entry `CCN(CC)c1ccc(CNC(=O)c2cc(-c3ccc(S(=O)(=O)C(C)C)cc3)[nH]n2)cc1` , what Activity was observed with MCF7?
62

Record lookup: for MCF7, what Activity belongs to `CC(C)S(=O)(=O)c1ccc(-c2cnc3[nH]nc(C(=O)N4CCC(c5ccccc5)CC4)c3c2)cc1` ?
49

For MCF7, provide Activity of `CC(C)S(=O)(=O)c1ccc(-c2cnc3[nH]cc(CN4CCC(c5ccccc5)CC4)c3c2)cc1` please.
46

Notebook entry, MCF7 assay: Activity of `CC(C)S(=O)(=O)c1ccc(-c2cc(-c3nnc(-c4ccccc4)o3)n[nH]2)cc1` = ?
64

Query Activity on MCF7 for `CC(C)S(=O)(=O)c1ccc(-c2cc(C(=O)Nc3ccc(N(C)C)cc3)n[nH]2)cc1`
65

Kindly state the measured Activity obtained for `CC(C)S(=O)(=O)c1ccc(-c2cnc3[nH]c(C(=O)NCc4ccccc4)cc3c2)cc1` with MCF7.
61

Recall the recorded Activity for `CCN1CCN(C(=O)c2c[nH]c3ncc(-c4ccc(S(C)(=O)=O)cc4)cc23)CC1` with MCF7 and state it.
70

Please state recorded Activity (tested on MCF7) of `CC(C)S(=O)(=O)c1ccc(-c2cnc3[nH]cc(C(=O)N4CCC(c5ccccc5)CC4)c3c2)cc1`
28

For the record `CS(=O)(=O)c1ccc(-c2cnc(N)c(C(=O)Nc3ccccc3)n2)cc1` , what value of Activity is listed for MCF7?
16

Under MCF7: Activity value of `CC(C)S(=O)(=O)c1ccc(-c2cnc3[nH]c(C(=O)Nc4ccccc4)cc3c2)cc1` ?
65

Please provide the recorded Activity for `CCN(CC)c1ccc(CNC(=O)c2cc3cc(-c4ccc(S(=O)(=O)C(C)C)cc4)cnc3[nH]2)cc1` , tested on MCF7.
57

Which Activity is reported with MCF7 for this entry: `CS(=O)(=O)c1ccc(-c2cnc3[nH]nc(C(=O)N4CCC(c5ccccc5)CC4)c3c2)cc1` ?
71

Observed Activity on MCF7 for `CC(C)S(=O)(=O)c1ccc(-c2cnc3[nH]nc(C(=O)NCc4ccccc4)c3c2)cc1` , please.
60

# value lookup — system MCF7, readout Activity, item `CC(C)S(=O)(=O)c1ccc(-c2cnc3[nH]cc(C(=O)Nc4ccc(N(C)C)cc4)c3c2)cc1`
59

API: value(readout= Activity, system= MCF7, query= `CC(C)S(=O)(=O)c1ccc(-c2cc(C(=O)NCc3ccccc3)n[nH]2)cc1` )
68

Find Activity (MCF7) for the entry `CCN1CCN(C(=O)c2cc3cc(-c4ccc(S(C)(=O)=O)cc4)cnc3[nH]2)CC1`
58

Look up Activity with MCF7 for this compound: `CC(C)S(=O)(=O)c1ccc(-c2cnc3[nH]cc(C(=O)NCc4ccccc4)c3c2)cc1`
65

So what Activity did `CCN1CCN(C2CCN(C(=O)c3cc4cc(-c5ccc(S(C)(=O)=O)cc5)cnc4[nH]3)CC2)CC1` get with MCF7?
67

Form field - read-out: Activity; system: MCF7; submitted item: `CS(=O)(=O)c1ccc(-c2cnc3[nH]c(C(=O)NCc4ccccc4)cc3c2)cc1`
72

Recorded Activity for `CCN1CCN(C2CCN(Cc3c[nH]c4ncc(-c5ccc(S(=O)(=O)C(C)C)cc5)cc34)CC2)CC1` with MCF7, please?
46

What value of Activity on MCF7 does `CCN1CCN(C2CCN(C(=O)c3c[nH]c4ncc(-c5ccc(S(=O)(=O)C(C)C)cc5)cc34)CC2)CC1` have?
62

Query for MCF7: what Activity does the record show for `CC(C)S(=O)(=O)c1ccc(-c2cnc3[nH]cc(C(=O)N4CCc5ccccc5C4)c3c2)cc1` ?
66
